System: SK-MEL-2 melanoma
Assay: NCI tumour cell line growth inhibition, 48 h
Metric Name: GI50

Fill in GI50 for record "C=C1C[C@@H]2C/C=C/C(=O)C/C(C)=C\C=C\C(=O)O[C@H](C=O)C/C(C)=C/[C@H](C1)O2"
6.1 µM

# return recorded GI50 for entry "CCOC(=O)Cc1csc(/N=C2\NC(=O)/C(=C3\C(=O)N(C)c4ccccc43)S2)n1"
24.2 µM

Please supply the value of reported GI50 for the item "O=C(Nc1ccc(-n2cc(-c3ccncc3)c(-c3ccc(Cl)c(O)c3)n2)cc1)Nc1cc(C(F)(F)F)cc(C(F)(F)F)c1"
1.8 µM

Next up:
Return the recorded GI50 value; entry: N#CC1=C(N)OC2=C(COc3ccc(F)cc32)C1c1ccc(Cl)cc1 (centres undefined)
35.1 µM

====

Test system: PC-3 prostate
Experiment: NCI tumour cell line growth inhibition, 48 h
Metric Name: GI50

Solved cases below.
Please look at this molecule and report its GI50: "N=C1c2nc3n(c2C(=O)c2nc4n(c21)CCCC4)CCCC3"
> 68.8 µM

State, in one line, measured GI50 of "COc1cc(Cl)cc(-c2nn(C(=O)NCCN3CCN(C)CC3)cc2-c2ccncc2)c1"
19.5 µM

Look up GI50 of CC([C@H]1CCC2C3CCC4C[C@@H](NC=O)CC[C@]4(C)C3CC[C@@]21C)N(C)C (stereo not given in full) and report it.
2.47 µM

Return reported GI50. Input molecule: "CCOC(=O)CCCn1c(SC)nc2cc(-c3ccco3)[nH]c2c1=O"
> 100 µM

Consider now this further molecule.
Quote GI50 reported for "CCCCCNC(=O)[C@@H]1CCCN2C(=O)CC[C@H](NC(=O)[C@H](Cc3ccc(OP(=O)(O)O)cc3)NC(C)=O)C(=O)N12" please.
> 25 µM

====

System: NCI-H23 lung
Assay: NCI tumour cell line growth inhibition, 48 h; in the data active means GI50 below about 0.43 µM; inactive means the rest
// one of active, inactive, no free text

Recorded results for 3 compounds are shown here.
Write down the call the test reported for this compound. Item: "COc1ccc(/C=C2\CN(C(=O)C(Cl)Cl)C/C(=C\c3ccc(OC)c(OC)c3)C2=O)cc1OC"
active

Kindly provide the recorded test outcome for the following compound: N#CC1=C(N)N=C(N2CCCCC2)C(C#N)C12Nc1ccccc1S2 (stereo unspecified)
inactive

Could you please tell me the result logged for C/C=C(\C)C(=O)N[C@H]1[C@@H](OC(C)=O)C[C@]2(C)C3CC[C@@]4(C)C(CC[C@@H]4C(C)N(C)C)C3CCC2[C@H]1O (stereo partly specified) in this assay?
inactive

***
Tell me the assay call for "Cn1ccc2c(NCCN)c3c(c(NCCN)c21)C(=O)c1ccccc1C3=O" please.
inactive

So what was the verdict on "CC(=O)Nc1nc(SCc2ccccc2)c2ncn(C(C)=O)c2n1" in this test?
inactive

# outcome recorded in this test, key = N#CC1=C(N)OC2=C(COc3ccc(F)cc32)C1c1ccc(Cl)cc1 (stereo unspecified)
inactive

Name the outcome recorded for "N=C1c2nc3n(c2C(=O)c2nc4n(c21)CCCC4)CCCC3" in the assay.
inactive

Identify the outcome logged in this assay for the compound shown: "CCC1=C[C@@H]2CN(C1)Cc1c([nH]c3ccccc13)[C@@](C(=O)OC)(c1cc3c(cc1OC)N(C=O)[C@H]1[C@@](O)(C(=O)OC)[C@H](OC(C)=O)[C@]4(CC)[C@@H]5C[C@@H]5CN5CC[C@]31[C@@H]54)C2"
active

====

Recorded TGI for the following compounds
Test system: COLO 205 colon
Experiment: NCI tumour cell line growth inhibition, 48 h
Write the number in µM without appending the unit.

// worked examples, TGI included
State, in one line, measured TGI of "CCOC(=O)/C(=C\c1ccc(OCc2ccccc2)c(OC)c1)C(=O)c1ccccc1"
99.2

Give TGI for the following compound: "COc1ccc(C[C@H]2NC(=O)/C=C/C[C@@H]([C@H](C)[C@H]3O[C@@H]3c3ccccc3)OC(=O)[C@H](CC(C)C)OC(=O)[C@H](C)CNC2=O)cc1"
4.99e-05

State its TGI: "Cc1c(C#N)c2nnn(-c3ccc([N+](=O)[O-])cc3)c(=O)n2c1-c1ccccc1"
22.9

Please turn your attention to the following entry.
For the compound COC1/C=C\C=C(/C)C(=O)Nc2cc3nc4ccc(Br)cc4oc-3c(c2=O)CC(C)CC(OC)C(O)C(C)/C=C(\C)C1OC(N)=O (centres undefined) , give its reported TGI.
0.169

====

System: HCC-2998 colon
Test: NCI tumour cell line growth inhibition, 48 h; in the data active means GI50 below about 0.43 µM; inactive means the rest
I would appreciate it if you answered using one of these outcomes: Yes = active, No = inactive

Solved cases (3 shown):
Called result for "Nc1nc(Nc2ccc3c(c2)CC[C@@H](N2CCCC2)CC3)nn1-c1cc2c(nn1)-c1ccccc1CCC2"
No

# fetch the recorded call for "C=C1C[C@@H]2C/C=C/C(=O)C/C(C)=C\C=C\C(=O)O[C@H](C=O)C/C(C)=C/[C@H](C1)O2" here
No

Returns: the outcome recorded for "CCOC(=O)CCCn1c(SC)nc2cc(-c3ccco3)[nH]c2c1=O" in this assay.
No

***
Assay outcome for "COc1cc(C(=O)O[C@H](C(=O)NCCNC(=O)[C@@H](OC(=O)c2cc(OC)cc3c(C)cccc23)[C@]2(C)CO2)[C@]2(C)CO2)c2cccc(C)c2c1" : what was it?
Yes

What was the test verdict on "Fc1ccc(Oc2nccc(-c3c(-c4ccc(F)cc4)ncn3C3CCNCC3)n2)cc1" ?
No

Per the assay record, what outcome was assigned to "COC(=O)COc1ccc(/C=C2\N=C(c3ccccc3)N(c3cc(C(F)(F)F)ccc3Cl)C2=O)cc1" ?
No

Entry "COc1cc(NC(=O)c2cc(OC)c3ccn(C)c3c2)cc2c1C[C@]1(C)CC[C@@H](O)C(C)(C)[C@H]1O2" : call = ?
No

Kindly provide the recorded test outcome for the following compound: "NCCCC(=O)Nc1ccncc1"
No

Given "COc1cc(Cl)cc(-c2nn(C(=O)NCCN3CCN(C)CC3)cc2-c2ccncc2)c1" , state the outcome it received in this test.
No

GET /call?item= "CCOC(=O)Cc1csc(/N=C2\NC(=O)/C(=C3\C(=O)N(C)c4ccccc43)S2)n1" returns the recorded outcome of this test.
No

Returns: the outcome recorded for "COc1ccc(CNc2nc3cc(N)cc(N)c3nc2-c2ccccc2)cc1OC" in this assay.
No

Please let me know the test result on file for "O=C(Nc1ccc(-n2cc(-c3ccncc3)c(-c3ccc(O)c(Cl)c3)n2)cc1)c1cc(Cl)cc(Cl)c1" .
No

====

Tested on: IGROV1 ovarian
Test: NCI tumour cell line growth inhibition, 48 h
Listing of recorded TGI by entry.
# unit: µM | format: bare number

Indicate its recorded TGI; the molecule in question is "O=[N+]([O-])c1ccc(-c2nc(N(CCO)CCO)c3ccccc3n2)o1"
0.45

For the molecule CC1=NC2(CCCCC2)N(Cl)C(=O)C1SC#N (stereo not given) , report TGI.
34.4

Further cases:
Dear colleague, please send me the reported TGI for "C=C1C[C@@H]2C/C=C/C(=O)C/C(C)=C\C=C\C(=O)O[C@H](C=O)C/C(C)=C/[C@H](C1)O2" when you can.
21.7

====

The entries below come with measured TGI values attached.
Test system: EKVX NSCLC
Experiment: NCI tumour cell line growth inhibition, 48 h

Fill in TGI for record "Cc1nc2c(=O)[nH]c(=O)n(C)c2[nH]c1=O"
> 100 µM

// fetch TGI given entry "COc1cc(CCNC2=CC(=O)c3cccnc3C2=O)ccc1O"
11.5 µM

---
Tell me measured TGI for CC1Cc2c(N)nc(NN)nc2NC1=O (stereo not drawn) please.
> 100 µM

====

Test system: COLO 205 colon
Experiment: NCI tumour cell line growth inhibition, 48 h
Metric Name: TGI

Below are worked cases with known answers.
Return value of TGI for input Cc1cc(O)c(C(=O)CC2(O)C(=O)Nc3c(Cl)cc(Cl)cc32)c(=O)o1 (stereo unspecified) , no commentary.
> 100 µM

Indicate the recorded TGI value for this molecule: "CN(NC(=O)CC(=O)NN(C)C(=S)c1ccccc1)C(=S)c1ccccc1"
> 100 µM

Note TGI for the molecule shown: "COc1ccccc1C1=C2C(=O)N(C)C(c3ccccc3OC)=C2C(=O)N1C"
> 100 µM

Output measured TGI for this item: O=C(CCCC1Cc2ccccc2C1=O)c1ccccc1 (stereo unspecified)
> 100 µM

For the molecule COC(=O)C1=COC(C)C2C[n+]3ccc4c([nH]c5ccccc54)c3CC12 (stereo unspecified) , give its reported TGI.
> 100 µM

***
Please indicate TGI recorded for "C1CNCCNCCNCCN1"
> 100 µM

Please list TGI recorded for the molecule "CCCCCCCCCNCCCCCCCCC"
3.22 µM

Give me measured TGI, please, for this molecule: COC(=O)c1c(C)ccc2c(O)c3c(cc12)C(=O)c1c2c(cc(O)c1C3=O)C1(C)OC(C)(O2)C(O)C(N(C)C)C1O (stereo unspecified)
7.56 µM

Answer with reported TGI of "c1cc2c(cc1C(N1CCNCC1)N1CCNCC1)OCO2"
> 100 µM

Give TGI for "O=C(Nc1ccc(Cl)cc1)c1cccc([N+](=O)[O-])c1O"
10.5 µM

Note down TGI recorded for "CC(/C=N/N(C)C1=NCCCCN1)=N/N(C)C1=NCCCCN1"
> 100 µM
